Provenance of the data: ChEMBL document CHEMBL1201862

- target: Disintegrin and metalloproteinase domain-containing protein 17 (Homo sapiens, UniProt P78536)
- Sequence (P78536 whole entry, the tested form may be a part): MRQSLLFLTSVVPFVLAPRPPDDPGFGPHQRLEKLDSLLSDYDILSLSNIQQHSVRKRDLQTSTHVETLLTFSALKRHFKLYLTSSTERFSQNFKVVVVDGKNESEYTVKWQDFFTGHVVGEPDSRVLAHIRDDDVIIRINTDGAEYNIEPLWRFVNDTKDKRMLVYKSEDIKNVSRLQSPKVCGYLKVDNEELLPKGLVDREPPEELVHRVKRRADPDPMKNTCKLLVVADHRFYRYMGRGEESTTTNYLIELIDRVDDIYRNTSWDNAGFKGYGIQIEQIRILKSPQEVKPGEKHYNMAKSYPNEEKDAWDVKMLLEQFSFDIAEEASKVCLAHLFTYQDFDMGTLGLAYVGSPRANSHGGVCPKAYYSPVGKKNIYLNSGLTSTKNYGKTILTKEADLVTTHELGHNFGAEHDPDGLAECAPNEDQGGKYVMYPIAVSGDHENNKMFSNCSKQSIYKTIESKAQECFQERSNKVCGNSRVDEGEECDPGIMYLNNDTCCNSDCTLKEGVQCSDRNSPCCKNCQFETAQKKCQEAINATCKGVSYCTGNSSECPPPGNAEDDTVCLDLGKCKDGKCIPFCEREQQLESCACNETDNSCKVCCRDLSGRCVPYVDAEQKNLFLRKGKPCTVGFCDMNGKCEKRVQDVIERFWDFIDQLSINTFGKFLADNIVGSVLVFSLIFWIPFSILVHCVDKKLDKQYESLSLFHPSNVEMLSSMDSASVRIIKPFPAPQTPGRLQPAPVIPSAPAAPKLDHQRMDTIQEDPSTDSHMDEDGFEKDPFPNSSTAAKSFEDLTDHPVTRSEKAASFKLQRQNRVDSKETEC
- method-description: exosite inhibitors of ADAM17, dose response, biochemical (AID 743260)
Activity calls are given as the source filed them. How the calls were made is not given here.
experimental-endpoint: IC50

Solved cases below.
1) O=C(COC(=O)c1cccc(NS(=O)(=O)/C=C/c2ccccc2)c1)Nc1ccccc1OC(F)F | > 69.5 µM (inactive)
2) CCOC(=O)/C=C1\CN(Cc2ccc(OC)cc2)S(=O)(=O)c2ccccc21 | > 69.5 µM (inactive)
3) Cc1csc(-c2cnn(-c3ccccc3)c2NC(=O)c2ccc(C(F)(F)F)cc2)n1 | > 69.5 µM (inactive)

(Q) Tell me IC50 reported for O=C(CN1CCN(c2nc(-c3ccccc3)cs2)CC1)Nc1ccc(Cl)c(Cl)c1
(A) > 69.6 µM (inactive)
